# experiment-notes: Pharmacokinetics of HCT constituents in rat plasma after a single dose of HCT extract
# Type: in vivo, SD rats
# measurement-parameters: female, SD, rat, plasma, 600 mg/kg, FDH: 600 mg/kg BW freeze-dried HCT extract
Listed here are compounds together with their documented AUC.
Give the quantity in µM·h, number only.

C[C@@H]1O[C@@H](OC[C@H]2O[C@@H](Oc3c(-c4ccc(O)c(O)c4)oc4cc(O)cc(O)c4c3=O)[C@H](O)[C@@H](O)[C@@H]2O)[C@H](O)[C@H](O)[C@H]1O ... 0.328
O=C(/C=C/c1ccc(O)c(O)c1)O[C@@H]1C[C@](O)(C(=O)O)C[C@@H](O)[C@H]1O ... 0.231
O=C(O)[C@H]1O[C@@H](Oc2cc3oc(-c4ccc(O)cc4)cc(=O)c3c(O)c2O)[C@H](O)[C@@H](O)[C@@H]1O ... 0.116

Reported AUC for `O=c1c(O)c(-c2ccc(O)c(O)c2)oc2cc(O)cc(O)c12` : what is it?
2.55
